measurement_label: melting point

- CCCCCCCCCCSc1c(SCCCCCCCCCC)c(SCCCCCCCCCC)c(C(O)=NCCO)c(C(=O)O)c1SCCCCCCCCCC: 57 to 58 °C
- CCC1(CC)c2cc(-c3nc4ccccc4s3)ccc2-c2ccc(C(CCCCCN)c3ccc4c(c3)C(CC)(CC)c3cc(-c5nc6ccccc6s5)ccc3-4)cc21: 108 to 109 °C
- C=CCN(CC=C)c1nc(NC(C)(C)CC(C)(C)C)nc(N(CCCCCCN(c2nc(NC(C)(C)CC(C)(C)C)nc(N(CC=C)CC=C)n2)C2CC(C)(C)NC(C)(C)C2)C2CC(C)(C)NC(C)(C)C2)n1: 113 to 115 °C
- CCCCCCCCCCCCCCCCS(=O)(=O)Nc1cccc2ccc(O)c(NS(=O)(=O)c3ccc(NC(C)=O)c4c(O)c(N=Nc5ccccc5OC)ccc34)c12: 177 to 180 °C
- CCCCCCCCCCCCCCOc1ccc(N(CC(=O)OCc2ccccc2)CC(=O)OCc2ccccc2)cc1OCCCCCCCCCCCCCC: 52 °C
- NC(=O)c1cnn(-c2ncc(C(F)(F)F)cc2Cl)c1NC(=O)C1(F)CC1: 204 °C
- CCC1(CC)c2cc(-c3nc4ccccc4s3)ccc2-c2ccc(N(Cc3ccccc3)c3ccc4c(c3)C(CC)(CC)c3cc(-c5nc6ccccc6s5)ccc3-4)cc21: 174 to 176 °C
- Cc1cc(Cc2ccc(O)c(C(c3cc(C)c(O)cc3C)c3cc(C)c(O)cc3C)c2)c(O)c(Cc2ccc(O)c(C(c3cc(C)c(O)cc3C)c3cc(C)c(O)cc3C)c2)c1: 276 °C
- [C-]#[N+]c1c(Cl)cc(OC)cc1Cl: 110 to 112 °C
- CC(=O)OCC=C(C)CCC=C(C)CCC=C(C)CCC=C(C)CCC=C(C)CCC=C(C)CCC=C(C)CCC=C(C)CCC=C(C)CCC=C(C)CCC=C(C)C: 36 to 37 °C
- CCCC(=O)C(=CNc1ccc(COC(=O)c2ccccc2)cc1)C(=O)OCC: 73 to 75 °C
- CCCCCCCCCCCCCCCC(=O)OCC1OC(n2cc(F)c(=O)n(C(=O)c3cccc(OC)c3OC)c2=O)CC1OC(=O)CCCCCCCCCCCCCCC (stereo not drawn): 77 to 78 °C
- CCCc1c(CC[Si](Cl)(Cl)Cl)c(CC[Si](Cl)(Cl)Cl)c(CC[Si](Cl)(Cl)Cl)c(CC[Si](Cl)(Cl)Cl)c1CC[Si](Cl)(Cl)Cl: 211 to 216 °C

---

measurement_label: melting point

• O=P(O)(C(F)(F)C(F)(F)C(F)(F)C(F)(F)C(F)(F)C(F)(F)C(F)(C(F)(F)F)C(F)(F)F)C(F)(F)C(F)(F)C(F)(F)C(F)(F)C(F)(F)C(F)(F)C(F)(C(F)(F)F)C(F)(F)F = 170 to 172 °C
• CC(=O)Nc1c(I)c(C(=O)N(C)CC(O)C(O)C(O)C(O)CO)c(I)c(N(C)C(C)=O)c1I (stereo unspecified) = 110 to 130 °C
• CC(C)(C)CC(C)(C)c1cc(-n2nc3ccc(-c4ccc(-c5ccc6nn(-c7cc(C(C)(C)CC(C)(C)C)cc(C(C)(C)c8ccccc8)c7O)nc6c5)cc4)cc3n2)c(O)c(C(C)(C)c2ccccc2)c1 = 247 to 249 °C
• Cc1cc(C)c(N2c3ccccc3S(=O)(=O)c3cc(C=Cc4ccc(-c5ccc(C=Cc6ccc7c(c6)S(=O)(=O)c6ccccc6N7c6c(C)cc(C)cc6C)cc5)cc4)ccc32)c(C)c1 = > 350 °C
• CC(O)CN(C)C (stereo unspecified) = -40 °C
• CCCCC(CC)CN1C(=O)C(=Cc2cc3c(s2)c2sc(-c4ccc(N(c5ccccc5)c5ccccc5)cc4)cc2n3CC(CC)CCCC)C(C)=C(C#N)C1=O (stereo unspecified) = 137 to 140 °C
• CC(CCC(=O)NCCNCCCNC(=O)CN1CCN(CC(=O)O)CCN(CC(=O)O)CCN(CC(=O)O)CC1)C1CCC2C3C(O)CC4CC(O)CCC4(C)C3CC(O)C12C (stereo unspecified) = 154 °C
• CCCNc1nc2cccc(C(=O)OCC)c2n1Cc1ccc(-c2ccccc2-c2nnn[nH]2)cc1 = 170 to 172 °C
• CCCCCCCCCCCCCC(=O)Nc1ccc(Cl)c(NC2=NN(c3c(Cl)cc(Cl)cc3Cl)C(=O)C2SCCCCOc2cccc(C)c2)c1 (stereo unspecified) = 123 to 124 °C
• CC(=O)Nc1cc(N2CCN(Cc3ccccc3)CC2)ccc1OCC(=O)N[C@@H](CC(N)=O)C(=O)N[C@@H](Cc1ccccc1)[C@H](O)C(=O)N1CCC[C@H]1C(=O)NC(C)(C)C = 119 to 127 °C
• CC(C#N)N1CCC(c2noc3cc(F)ccc23)CC1 (stereo unspecified) = 133 to 134 °C
• Cc1cc(-c2nc3c(S(C)=O)cc(Cl)nn3c2-c2ccnc(N)c2)ccc1F (stereo unspecified) = 216 to 217 °C
• CC(C)[C@H](NC(=O)N(C)Cc1nccs1)C(=O)N[C@@H](Cc1ccccc1)[C@@H](O)[C@H](O)[C@H](Cc1ccccc1)NC(=O)[C@@H](NC(=O)N(C)Cc1nccs1)C(C)C = 176 to 178 °C
• CCCCCCCCNC(=O)CO = 80 °C
• N=S(=O)(C=Cc1ccccc1N)c1ccccc1 (stereo unspecified) = 95 to 96 °C
• O=[N+]([O-])c1cc(Sc2ccc(-c3c(S(=O)c4ccc(Cl)c([N+](=O)[O-])c4-c4ccc(Sc5ccc(Cl)c([N+](=O)[O-])c5)cc4)ccc(Cl)c3[N+](=O)[O-])cc2)ccc1Cl = 144 to 146 °C
• Nc1ncnc2c1c(I)cn2COC(O)CCO (stereo unspecified) = 177 to 178 °C
• CC(C)[C@H](NC(=O)N(C)Cc1cscn1)C(=O)N[C@@H](Cc1ccccc1)[C@@H](O)[C@H](O)[C@H](Cc1ccccc1)NC(=O)[C@@H](NC(=O)N(C)Cc1cscn1)C(C)C = 92 to 94 °C
• Cc1cc(C(F)(F)F)ccc1Cn1nc(OC(C)C)cc1CCCOc1ncccc1CC(=O)O = 105 to 107 °C
• CCCCCCCCCCCCCCCCCN1C(=O)C2=C(c3ccc(Br)s3)N(CCCCCCCCCCCCCCCCC)C(=O)C2=C1c1ccc(Br)s1 = 166 to 167 °C
• COCCOCOc1cc(C(ON=C(C(=O)O)c2csc(NC(c3ccccc3)(c3ccccc3)c3ccccc3)n2)C(=O)OC(c2ccccc2)c2ccccc2)cc(C#N)c1OCOCCOC (stereo unspecified) = 158 °C
• CC(C)C(OC(C(I)=C(I)I)C(C)C)C(I)=C(I)I (stereo unspecified) = 43.5 to 44 °C
• COc1cc([N+](=O)[O-])cc(C(=O)C2CCCN(C(=O)c3cc([N+](=O)[O-])cc(OC)c3OC)NNN(C(=O)c3cc([N+](=O)[O-])cc(OC)c3OC)CCCC(C(=O)c3cc([N+](=O)[O-])cc(OC)c3OC)CC2)c1OC (stereo unspecified) = 232 to 235 °C
• CN=S(=O)(NC(=O)Nc1nc(C)nc(OC)n1)c1ccccc1Cl (stereo unspecified) = 154 to 160 °C
• CC(C)C[C@H](NC(=O)[C@H](C)NC(=O)[C@H](C)NC(=O)OC(C)(C)C)C(=O)NCCNc1ccc(NCCNC(=O)[C@H](CC(C)C)NC(=O)[C@H](C)NC(=O)[C@H](C)NC(=O)OC(C)(C)C)c2c1C(=O)c1c(O)ccc(O)c1C2=O = > 220 °C
• CS(=N)(=O)c1ccc(-n2cnnn2)cc1 (stereo unspecified) = 180 to 181 °C

---

measurement_label: melting point

• CCCCCCCCCCN(CCCCN(CCCN(CCCCCCCCCC)C(=O)c1cccc(O)c1O)C(=O)c1cccc(O)c1O)C(=O)c1cccc(O)c1O = 63 to 65 °C
• Cc1ccc(S(=O)(=O)N2CCOCCN(S(=O)(=O)c3ccc(C)cc3)CCN(S(=O)(=O)c3ccc(C)cc3)CCN(S(=O)(=O)c3ccc(C)cc3)CC2)cc1 = 198 to 201 °C
• CCCCCCCCCCCCCC=CC(OC(=O)c1ccccc1)C(COC1OC(CO)C(O)C(OCCCCC(C(=O)OC(C)(C)C)C(=O)OC(C)(C)C)C1O)NC(=O)CCCCCCCCCCCCCCC (centres undefined) = 131 to 132 °C
• Cc1ccc2cccc(OCc3c(Cl)ccc(S(=O)(=O)N4CCC[C@H]4C(=O)NC4CCN(C(=O)CCCN(C=NC(=O)OC(C)(C)C)NC(=O)OC(C)(C)C)CC4)c3Cl)c2n1 = 102 to 105 °C
• CCCCCCCCCCCCCCCCCCSCCOC1OC(COC(C)=O)C(OC2OC(COC(C)=O)C(OC3OC(COC(C)=O)C(OC(C)=O)C(OC(C)=O)C3OC(C)=O)C(OC(C)=O)C2OC(C)=O)C(OC(C)=O)C1N1C(=O)c2ccccc2C1=O (centres undefined) = 150 to 152 °C
• CC(C)(O)CCOc1c(-c2ccc(S(N)(=O)=O)cc2)cnn(-c2ccc(F)cc2)c1=O = 163 to 164 °C
• NC(=O)OCCCN1CCN2c3ccccc3Cc3ccccc3C2C1 (centres undefined) = 160 to 161 °C
• COC(=O)C(C)(C)NC(=O)Nc1ccc(Cl)cc1 = 135 to 136 °C
• O=C(OCC(OC(=O)C1CCCCC1)C(OC(=O)C1CCCCC1)C(OC(=O)C1CCCCC1)C(COC(=O)C1CCCCC1)OC(=O)C1CCCCC1)C1CCCCC1 (centres undefined) = 135 to 140 °C
